Biological target: Progesterone receptor (Homo sapiens)
Sequence (whole entry): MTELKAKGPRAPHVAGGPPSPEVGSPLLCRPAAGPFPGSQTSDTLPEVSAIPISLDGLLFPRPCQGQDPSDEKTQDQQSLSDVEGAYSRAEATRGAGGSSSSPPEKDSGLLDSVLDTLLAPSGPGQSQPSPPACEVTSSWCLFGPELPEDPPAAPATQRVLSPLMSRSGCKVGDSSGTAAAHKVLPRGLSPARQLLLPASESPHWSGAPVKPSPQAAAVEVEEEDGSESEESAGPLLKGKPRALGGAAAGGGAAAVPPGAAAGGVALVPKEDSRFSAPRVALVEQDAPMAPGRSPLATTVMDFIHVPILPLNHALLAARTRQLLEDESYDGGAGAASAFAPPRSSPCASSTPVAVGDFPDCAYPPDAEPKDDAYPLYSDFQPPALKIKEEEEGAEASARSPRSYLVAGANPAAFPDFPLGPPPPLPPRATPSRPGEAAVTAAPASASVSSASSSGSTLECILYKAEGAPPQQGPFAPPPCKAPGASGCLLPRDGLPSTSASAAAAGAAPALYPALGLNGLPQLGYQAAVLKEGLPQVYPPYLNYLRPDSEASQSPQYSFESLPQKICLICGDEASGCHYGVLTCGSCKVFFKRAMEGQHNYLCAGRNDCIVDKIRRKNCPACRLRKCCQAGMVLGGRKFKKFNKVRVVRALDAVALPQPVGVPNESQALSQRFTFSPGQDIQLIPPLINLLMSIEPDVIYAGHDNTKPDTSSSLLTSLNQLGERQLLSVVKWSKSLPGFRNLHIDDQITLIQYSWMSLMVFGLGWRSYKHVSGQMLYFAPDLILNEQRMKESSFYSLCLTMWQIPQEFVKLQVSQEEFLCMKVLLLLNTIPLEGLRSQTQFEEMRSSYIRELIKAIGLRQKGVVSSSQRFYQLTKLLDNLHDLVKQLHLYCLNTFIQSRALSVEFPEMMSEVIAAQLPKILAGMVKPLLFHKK
Test: Agonist efficacy for human progesterone receptor (hPR) was compared to that of progesterone (100%)
Type: functional
readout.label: Efficacy (%)

CC1=CC(C)(C)Nc2ccc3c(c21)C(c1ccc(Cl)c(C)c1)Oc1ccccc1-3 (stereo unspecified) = 68
CC1=CC(C)(C)Nc2ccc3c(c21)C(c1ccc(Cl)c(F)c1)Oc1ccccc1-3 (stereo unspecified) = 59
CC1=CC(C)(C)Nc2ccc3c(c21)C(c1cccc(Br)c1)Oc1ccccc1-3 (stereo unspecified) = 77
CC1=CC(C)(C)Nc2ccc3c(c21)C(c1ccc(F)c(C(F)(F)F)c1)Oc1ccccc1-3 (stereo unspecified) = 60
CC1=CC(C)(C)Nc2ccc3c(c21)C(c1cccc(Cl)c1)Oc1ccccc1-3 (stereo unspecified) = 76

(P) CC1=CC(C)(C)Nc2ccc3c(c21)C(c1ccc(C)c(F)c1)Oc1ccccc1-3 (stereo unspecified)
(Q) CC1=CC(C)(C)Nc2ccc3c(c21)C(c1ccc(Br)nc1)Oc1ccccc1-3 (stereo unspecified)
Task: Could you tell me which of these two has the smaller Efficacy figure? First: P Second: Q Answer by stating the label of the chosen item.
Result: Q
